Test system: sensitized Brown Norway rats
Test: Ovalbumin-induced accumulation of inflammatory cells in lung lavage fluid (allergen-induced lung inflammation)
Type: in vivo, rat
Settings: 1 mg/kg/day for 4 days, p.o., corn oil; lung lavage fluid
OUTCOME_MEASURE: % inhibition of lymphocytes (%)
Form entry: value (%) — number only.

# COMPOUND, % inhibition of lymphocytes, %
rows = [
    ("C=C1CCC2C3C(O)C(O)C4CC(NCc5cccnc5)CCC4(C)C3CCC12C.Cl.Cl (stereo not shown) [Compound 107]", "−28"),
    ("C=C1CCC2C3C(CC[C@]12C)[C@@]1(C)CC[C@@H](NS(=O)(=O)C(C)C)CC1[C@@H](O)[C@@H]3O (stereo partly shown) [Compound 133]", 28),
    ("CCC1(C)CCC2=C1CCC1C2C(O)C(O)C2CC(NCc3ccccc3)CCC21C.Cl (stereo not shown) [Compound 146]", "−27"),
    ("C=C1CCC2C3C(CC[C@]12C)[C@@]1(C)CC[C@@H](NC(=O)NCCC)CC1[C@@H](O)[C@@H]3O (stereo partly shown) [Compound 138]", 33),
    ("CCC1(C)CCC2=C1CCC1C2C(O)C(O)C2CC(NCc3ccccc3)CCC21C.Cl (stereo not shown) [Compound 147]", 36),
    ("CC=C1CCC2C3C(O)C(O)C4CC(NCCNCCO)CCC4(C)C3CCC12C.Cl.Cl (stereo not shown) [Compound 124]", "−26"),
]

Endpoint output: % inhibition of lymphocytes of COc1ccc(CNC2CCC3(C)C(C2)C(O)C(O)C2C4=C(CCC23)C(C)(C)CC4)cc1OC.Cl (stereo not shown) [Compound 142] . Value? −42

meta.source: patent US20040034216A1
